- System: CAOV3
- protocol-details: Primary qHTS to identify gynecologic anti-cancer compounds using libraries of approved drugs and bioactive compounds (AID 1345084); note: nearly all actives have a fitted effect of over 55% in size
- condition-summary: Gynecologic cancer cell panel viability, ATPlite luminescence, 48 h; series mostly up to 57.5 µM
Records with an inconclusive call do not appear. Activity calls are given as the source filed them. Calls come from the whole dose curve; as a rule, active = well fitted cell-killing curve with a large enough effect; inconclusive = small, poorly fitted or top-dose-only effect, or effect the other way; inactive = flat fitted curve, though single readings scatter.
property: activity change, negative = cytotoxicity

Some solved cases for reference:
[ask] Identify measured activity change, negative = cytotoxicity associated with O=C(/C=C/c1ccc(O)c(O)c1)OCc1ccccc1O[C@@H]1O[C@H](CO)[C@@H](O)[C@H](O)[C@H]1O
[reply] inactive

[ask] Identify measured activity change, negative = cytotoxicity associated with Nc1c(Br)cc(Br)cc1CNC1CCC(O)CC1 (stereo not given)
[reply] inactive

[ask] Identify measured activity change, negative = cytotoxicity associated with CC[C@H](C)/C=C(C)/C=C/C(=O)Cc1cc(O)c(C)c(O)c1C=O
[reply] inactive

[ask] Identify measured activity change, negative = cytotoxicity associated with CC(=C/C(=O)O)/C=C/[C@]1(O)[C@@]2(C)CO[C@]1(C)C[C@H](O[C@@H]1O[C@H](CO)[C@@H](O)[C@H](O)[C@H]1O)C2
[reply] inactive

[ask] Identify measured activity change, negative = cytotoxicity associated with O=C(O)c1cc(O[C@@H]2O[C@H](CO[C@@H]3OC[C@@H](O)[C@H](O)[C@H]3O)[C@@H](O)[C@H](O)[C@H]2O)c2ccccc2c1O
[reply] inactive

[ask] Identify measured activity change, negative = cytotoxicity associated with C=C1CC[C@H]2[C@@](C)(CCC[C@@]2(C)C(=O)O)[C@@H]1CCC(C)CCO (stereo not given in full)
[reply] inactive

Next:
[ask] Identify measured activity change, negative = cytotoxicity associated with CC(C)=CCC[C@](C)(O[C@@H]1O[C@H](CO[C@@H]2OC[C@@H](O)[C@H](O)[C@H]2O)[C@@H](O)[C@H](O)[C@H]1O)[C@H]1CC[C@]2(C)[C@@H]1[C@H](O)C[C@@H]1[C@@]3(C)CC[C@H](O[C@@H]4O[C@H](CO)[C@@H](O)[C@H](O)[C@H]4O[C@@H]4O[C@H](CO)[C@@H](O)[C@H](O)[C@H]4O)C(C)(C)[C@@H]3CC[C@]12C
[reply] inactive

[ask] Identify measured activity change, negative = cytotoxicity associated with O=C(c1ccc(F)cc1)C1CCN(CCn2c(=O)nc3n(c2=O)CCCC3)CC1
[reply] inactive

[ask] Identify measured activity change, negative = cytotoxicity associated with C=C1C2=CC(O)C(C)C1(C)CC/C(C)=C/CCC1(C)OC1C2=O (stereo not given)
[reply] inactive

* * *

- protocol-details: P-glycoprotein substrates identified in KB-3-1 adenocarcinoma cell line, qHTS therapeutic library screen (AID 1346986); note: nearly all actives have a fitted effect of over 60% in size
- condition-summary: KB-3-1 parental cells viability, CellTiter-Glo, 72 h; series mostly up to 44.5 µM
Results filed as inconclusive are left out. Calls of active or inactive are those of the source. Calls come from the whole dose curve; as a rule, active = well fitted inhibition curve with a large enough effect; inconclusive = small, poorly fitted or top-dose-only effect; inactive = no such curve, though single readings can be large or run the other way.
property: outcome

Some solved cases for reference:
[ask] Identify measured outcome associated with Cc1cc(O)c(C(C)C)cc1O[C@@H]1O[C@H](CO)[C@@H](O)[C@H](O)[C@H]1O
[reply] inactive

[ask] Identify measured outcome associated with C/C(=C\CCC(C(=O)O)C1CCC2(C)C3=C(CCC12C)C1(C)CCC(=O)C(C)(C)C1CC3)C(=O)O (stereo not drawn)
[reply] inactive

[ask] Identify measured outcome associated with CCCn1cnc2c(NCc3ccccc3)nc(N[C@H](CC)CO)nc21
[reply] inactive

[ask] Identify measured outcome associated with COc1cccc(-c2ccc([C@@H](Oc3cc(-c4ccc(C[C@H](N)C(=O)O)cc4)nc(N)n3)C(F)(F)F)cc2)c1
[reply] inactive

[ask] Identify measured outcome associated with O=C(c1ccc(C#Cc2cccc(F)c2)cn1)N1CC2CC2C1 (stereo not drawn)
[reply] inactive

[ask] Identify measured outcome associated with C[C@@H]1O[C@@H](O[C@H]2[C@H](O[C@H]3[C@H](O[C@H]4CC[C@@]5(C)C(CC[C@]6(C)C5CC=C5[C@@H]7CC(C)(C(=O)O)C[C@@H](O)[C@]7(C)CC[C@]56C)[C@@]4(C)CO)O[C@H](C(=O)O)[C@@H](O)[C@@H]3O)O[C@H](CO)[C@H](O)[C@@H]2O)[C@H](O)[C@H](O)[C@H]1O (stereo partly drawn)
[reply] inactive [at 9.29 µM]

[ask] Identify measured outcome associated with C=CC1(C)C=C2C(=O)CC3C(C)(C)CCCC3(C(=O)O)C2(O)CC1 (stereo not drawn)
[reply] inactive

[ask] Identify measured outcome associated with O=c1c2cccnc2n(-c2cccc([N+](=O)[O-])c2)c(=O)n1Cc1ccncc1
[reply] inactive

Next:
[ask] Identify measured outcome associated with CC1CCC2(O1)C(C)(C)CC(O[C@@H]1O[C@H](CO[C@@H]3OC[C@](O)(CO)[C@H]3O)[C@@H](O)[C@H](O)[C@H]1O)CC2(C)O (stereo partly drawn)
[reply] inactive

[ask] Identify measured outcome associated with C[C@]12C=CC(=O)C=C1CC[C@@H]1[C@@H]2[C@@H](O)C[C@@]2(C)[C@H]1CC[C@]2(O)C(=O)COC(=O)CCC(=O)O
[reply] inactive

[ask] Identify measured outcome associated with O=C(/C=C/c1ccc(O)cc1)OCC1=C[C@@H](O)[C@@H]2C=CO[C@@H](O[C@@H]3O[C@H](CO)[C@@H](O)[C@H](O)[C@H]3O)[C@H]12
[reply] inactive

[ask] Identify measured outcome associated with CCc1c(CC(N)=O)c2cc(OCCCP(=O)(O)O)ccc2n1Cc1ccccc1
[reply] inactive

[ask] Identify measured outcome associated with C[C@@H]1O[C@@H](O[C@H]2[C@H](OC(=O)[C@]34CCC(C)(C)C[C@H]3C3=CCC5[C@@]6(C)C[C@H](O)[C@H](O[C@@H]7O[C@H](CO[C@@H]8OC[C@H](O)[C@H](O)[C@H]8O)[C@@H](O)[C@H](O)[C@H]7O)C(C)(C)C6CC[C@@]5(C)[C@]3(C)C[C@H]4O)OC[C@@H](O)[C@@H]2O)[C@H](O)[C@H](O[C@@H]2OC[C@](O)(CO)[C@H]2O)[C@H]1O[C@@H]1OC[C@H](O)[C@H](O[C@@H]2OC[C@@H](O)[C@H](O)[C@H]2O)[C@H]1O (stereo partly drawn)
[reply] inactive [at 9.29 µM]

* * *

- System: Zika virus NS2B-NS3 protease (linked construct)
- protocol-details: Primary screen NINDS Rhodamine qHTS for Zika virus inhibitors (AID 1347160); note: nearly all actives have a fitted effect of over 55% in size
- condition-summary: purified NS2B-NS3 protease, Rhodamine110 substrate fluorescence; series mostly up to 57.1 µM
- From the text: Avindra Nath, Ph.D., National Institute of Neurological Disorders and Stroke (NINDS), Bethesda, MD Radhakrishnan Padmanabhan, Ph.D., Georgetown University (GU), Washington D.C. Zika Virus causes congenital defects, including microcephaly and is associated with Guillain-Barre syndrome, eningoencephalitis and myelitis in infected adult. […]
Inconclusive results are not listed. Calls of active or inactive are those of the source. The call rests on the fitted dose curve; in most records, active means well fitted inhibition curve with a large enough effect; inconclusive means small, poorly fitted or top-dose-only effect; inactive means no such curve, though single readings can be large or run the other way.
property: outcome

[ask] Identify measured outcome associated with CN1CCC(c2c[nH]c3ccc(NC(=O)c4ccc(F)cc4)cc23)CC1
[reply] inactive

[ask] Identify measured outcome associated with COc1c2c(c(C)c3c1C(=O)OC3)O[C@@]1(C)C[C@@H](O)[C@]34O[C@](OC)(CC[C@]3(C)[C@H]1C2)OC4(C)C
[reply] inactive

[ask] Identify measured outcome associated with C[C@@H]1C(=O)O[C@H]2CC34[C@H]5C[C@@H](C(C)(C)C)C36[C@@H](OC(=O)[C@@H]6O)OC4(C(=O)O5)[C@]21O (some centres undefined)
[reply] inactive

[ask] Identify measured outcome associated with C=C1CCC2(OC1)OC1CC3C4CC=C5CC(O)CC(O[C@@H]6OC[C@@H](O)[C@H](O)[C@H]6O)C5(C)C4CCC3(C)C1(O)C2C (some centres undefined)
[reply] inactive

* * *

- protocol-details: Primary qHTS for inhibitors of nuclear receptor binding SET domain protein 2 (NSD2) in an isogenic RCH-ACV NSD2 p.E1099K mutant (9B) (AID 1645876); note: nearly all actives have a fitted effect of over 70% in size
- condition-summary: RCH-ACV (leukaemia line) NSD2 E1099K (9B) viability, CellTiter-Glo, 72 h; series mostly up to 44.9 µM
Records with an inconclusive call do not appear. Calls of active or inactive are those of the source. Calls follow the shape of the dose curve; as a rule, active = well fitted inhibition curve with a large enough effect; inconclusive = small, poorly fitted or top-dose-only effect; inactive = flat fitted curve, though single readings scatter.
property: activity change, negative = viability loss

Some solved cases for reference:
[ask] Identify measured activity change, negative = viability loss associated with N#CCc1ccc(O)cc1O[C@@H]1O[C@H](CO)[C@@H](O)[C@H](O)[C@H]1O
[reply] inactive

[ask] Identify measured activity change, negative = viability loss associated with C[C@@H](Nc1cc(NS(=O)(=O)N2CCC2)nc(SCc2cccc(F)c2F)n1)[C@@H](O)CO
[reply] inactive

[ask] Identify measured activity change, negative = viability loss associated with CC1(C)OC(=O)C(OCC2CC2)=C1c1ccc(S(C)(=O)=O)cc1
[reply] inactive

[ask] Identify measured activity change, negative = viability loss associated with CC(C)(O)/C=C1/C(=O)C(C)(C)C(=O)C(C)(C)C1(O)O[C@@H]1O[C@H](COC(=O)c2cc(O)c(O)c(O)c2)[C@@H](O)[C@H](O)[C@H]1O (stereo partly drawn)
[reply] inactive

[ask] Identify measured activity change, negative = viability loss associated with CN1Cc2c(N)cccc2C(c2ccccc2)C1 (stereo not drawn)
[reply] inactive

[ask] Identify measured activity change, negative = viability loss associated with C[C@]1(O)CC[C@@H]2C(C(=O)O)=CO[C@@H](O[C@@H]3O[C@H](COC(=O)c4ccc(O)cc4)[C@@H](O)[C@H](O)[C@H]3O)[C@@H]21
[reply] inactive

Next:
[ask] Identify measured activity change, negative = viability loss associated with C=C/C=C/[C@@H]1OC[C@H](/C=C/C=C/C)[C@H]1O
[reply] inactive

[ask] Identify measured activity change, negative = viability loss associated with C=C1C(O[C@@H]2O[C@H](CO)[C@@H](O)[C@H](O)[C@@H]2O)CC2C(C)(C)C(O)CCC2(C)C1CC/C(C)=C\CO (stereo partly drawn)
[reply] inactive
